// melting point lookup, one value per entry

Sample answers from the record:
{"molecule": "CCNc1cc(-c2ccccc2)nc2ncnn12", "property-label": "melting point", "value": "170 to 172 °C"}
{"molecule": "COc1ccc(CCNc2cc(-c3ccc(C)cc3)nc3ncnn23)cc1", "property-label": "melting point", "value": "155 to 156 °C"}
{"molecule": "COc1ccc(CCNc2cc(C)nc3ncnn23)cc1", "property-label": "melting point", "value": "129 to 130 °C"}
{"molecule": "c1ccc(-c2cc(NCCc3cccnc3)n3ncnc3n2)nc1", "property-label": "melting point", "value": "212 to 213 °C"}
{"molecule": "COc1ccc(CCNc2cc(-c3ccc(C(F)(F)F)cc3)nc3ncnn23)cc1", "property-label": "melting point", "value": "191 to 193 °C"}
{"molecule": "COc1ccc(CCNc2cc(-c3ccccn3)nc3ccnn23)cc1", "property-label": "melting point", "value": "116 to 117 °C"}
{"molecule": "CNc1cc(-c2ccccc2)nc2ncnn12", "property-label": "melting point", "value": "200 to 202 °C"}
{"molecule": "COc1ccc(CCNc2cc(-c3ccccn3)nc3nccn23)cc1", "property-label": "melting point", "value": "234 to 235 °C"}

Please fill in: melting point reported for "COc1ccc(CCNc2cc(-c3ccc(OC)cc3)nc3ncnn23)cc1" = 130 to 131 °C

Please fill in: melting point reported for "c1ccc(CCNc2cc(-c3ccccn3)nc3ncnn23)cc1" = 214 to 215 °C

Please fill in: melting point reported for "COc1ccc(CC(=O)Nc2cc(-c3ccccc3)nc3ncnn23)cc1OC" = 202 to 204 °C

Please fill in: melting point reported for "COc1ccc(CCNc2cc(-c3ccccc3OC)nc3ncnn23)cc1" = 148 to 149 °C

Please fill in: melting point reported for "c1ccc(CCNc2cc(-c3ccccc3)nc3ncnn23)cc1" = 164 to 165 °C
